STUDY SYSTEM: F508delCFTR (Homo sapiens, UniProt P13569, DEL508-508)
Construct: expressed in transfected cells; host or cells: CFBE41o- human lung-derived epithelial cells (CFBE4lo-F508delCFTR-HRP), doxycycline-inducible
Sequence (P13569 with tags, fused parts or gaps DEL508-508): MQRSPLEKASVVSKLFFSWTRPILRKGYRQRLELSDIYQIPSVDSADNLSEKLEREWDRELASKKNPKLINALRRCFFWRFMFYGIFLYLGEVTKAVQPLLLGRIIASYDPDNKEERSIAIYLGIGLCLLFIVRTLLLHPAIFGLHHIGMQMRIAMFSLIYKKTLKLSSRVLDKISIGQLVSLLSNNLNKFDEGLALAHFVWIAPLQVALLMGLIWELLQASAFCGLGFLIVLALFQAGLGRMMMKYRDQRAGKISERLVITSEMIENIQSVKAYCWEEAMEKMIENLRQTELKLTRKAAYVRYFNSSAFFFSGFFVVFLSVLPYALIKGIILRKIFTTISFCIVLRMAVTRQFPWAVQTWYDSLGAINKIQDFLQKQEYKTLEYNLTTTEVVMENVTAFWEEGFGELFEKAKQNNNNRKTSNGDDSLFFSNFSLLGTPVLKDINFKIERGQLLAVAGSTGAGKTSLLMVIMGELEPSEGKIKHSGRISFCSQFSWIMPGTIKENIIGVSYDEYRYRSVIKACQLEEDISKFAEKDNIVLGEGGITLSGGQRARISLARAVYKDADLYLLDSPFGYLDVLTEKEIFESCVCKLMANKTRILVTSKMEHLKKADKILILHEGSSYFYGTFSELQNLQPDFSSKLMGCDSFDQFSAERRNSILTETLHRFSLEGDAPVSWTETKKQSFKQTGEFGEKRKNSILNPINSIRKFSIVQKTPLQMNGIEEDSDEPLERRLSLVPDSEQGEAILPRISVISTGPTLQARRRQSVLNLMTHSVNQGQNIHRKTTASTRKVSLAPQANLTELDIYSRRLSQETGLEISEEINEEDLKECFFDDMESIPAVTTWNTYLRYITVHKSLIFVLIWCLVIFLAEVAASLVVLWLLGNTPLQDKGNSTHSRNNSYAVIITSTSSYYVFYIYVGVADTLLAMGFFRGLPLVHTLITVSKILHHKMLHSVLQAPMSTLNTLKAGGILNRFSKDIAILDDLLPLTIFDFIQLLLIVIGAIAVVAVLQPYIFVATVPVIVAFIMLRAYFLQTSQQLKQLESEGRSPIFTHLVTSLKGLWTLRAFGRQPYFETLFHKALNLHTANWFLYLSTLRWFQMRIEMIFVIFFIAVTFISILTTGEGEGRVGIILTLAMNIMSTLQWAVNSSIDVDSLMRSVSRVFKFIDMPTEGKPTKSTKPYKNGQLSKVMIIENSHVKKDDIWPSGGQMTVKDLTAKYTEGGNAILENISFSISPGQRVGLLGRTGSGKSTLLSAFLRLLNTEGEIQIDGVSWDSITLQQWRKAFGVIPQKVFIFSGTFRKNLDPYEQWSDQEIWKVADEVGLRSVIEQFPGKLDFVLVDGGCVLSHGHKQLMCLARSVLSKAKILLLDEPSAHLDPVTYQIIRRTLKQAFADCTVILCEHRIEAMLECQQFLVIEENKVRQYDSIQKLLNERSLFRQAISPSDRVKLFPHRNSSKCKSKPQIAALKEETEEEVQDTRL
PROTOCOL DETAILS: Cell Surface Expression-Horse Radish Peroxidase (CSE-HRP) Assay;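 as to Maximum % activity (without co-corrector): percent of the 2 µM on-plate positive control corrector response above DMSO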
Format: cell-based
CONDITION INFO: CSE-HRP; without co-corrector; maximum at any tested concentration, normalized to on-plate positive control; read-out: Maximum % activity (without co-corrector)
OUTCOME MEASURE: Emax

# annotated cases, reported Emax shown
compound=CC(C)(C)[C@H]1[C@H](NCc2ccc(Cl)cc2Cl)[C@H](c2ccccc2)N(C(=O)C2CCCCC2)[C@@H]1C(=O)O meas_value="< 100%"
compound="COc1ccc(C(F)(F)F)cc1CN[C@H]1[C@H](C(C)(C)C)[C@@H](C(=O)O)N(C(=O)[C@@H]2OCC[C@@H]2C)[C@H]1c1ccccc1 (relative stereo)" meas_value="> 200%"
compound="COc1ccc(C(C)(C)C)cc1CN[C@H]1[C@H](C(C)(C)C)[C@@H](C(=O)O)N(C(=O)C2COc3ccccc3C2)[C@H]1c1ccccc1 (stereo partly drawn)" meas_value="100 to 200%"

## Task For the compound COc1c(Cl)cccc1CN[C@@H]1[C@@H](C(C)(C)C)[C@H](C(=O)O)N(C(=O)C2CCCCC2)[C@@H]1c1ccccc1 (racemic) , give its reported Emax.
## Result < 100%

## Task For the compound COc1cc(C(F)(F)F)ccc1CN[C@H]1[C@H](C(C)(C)C)[C@@H](C(=O)O)N(C(=O)[C@H](OC)c2ccccc2)[C@H]1c1cccnc1OC , give its reported Emax.
## Result 100 to 200%

## Task For the compound COc1cc2c(cc1CN[C@H]1[C@H](C(C)(C)C)[C@@H](C(=O)O)N(C(=O)[C@@H]3CCCCO3)[C@H]1c1cccc3c1OCC3)CCCC2 , give its reported Emax.
## Result 100 to 200%

## Task For the compound COc1ncc(C2CCC2)cc1CN[C@H]1[C@H](C(C)(C)C)[C@@H](C(=O)O)N(C(=O)[C@@H]2CCCCO2)[C@H]1c1cccc2c1OCC2 , give its reported Emax.
## Result > 200%

## Task For the compound COc1ccc(-c2ccccc2C)cc1CN[C@H]1[C@H](C(C)(C)C)[C@@H](C(=O)O)N(C(=O)C2CCCCC2)[C@H]1c1ccccc1 , give its reported Emax.
## Result > 200%

## Task For the compound CCn1c(C)c(CC(=O)N2[C@H](C(=O)O)[C@@H](C(C)(C)C)[C@H](NCc3cc(C(C)(C)C)ccc3OC)[C@@H]2c2ccccc2)c2ccccc21 , give its reported Emax.
## Result > 200%

## Task For the compound COc1ncc(Br)cc1CN[C@H]1[C@H](C(C)(C)C)[C@@H](C(=O)O)N(C(=O)C2CCCCC2)[C@H]1c1ccccc1F , give its reported Emax.
## Result < 100%

## Task For the compound COc1ccc(C(C)C)cc1CN[C@H]1[C@H](C(C)(C)C)[C@@H](C(=O)O)N(C(=O)C2CCCCC2)[C@H]1c1ccccc1 , give its reported Emax.
## Result > 200%

## Task For the compound COc1ccc(Br)cc1CN[C@H]1[C@H](C(C)(C)C)[C@@H](C(=O)O)N(C(=O)OC(C)C)[C@H]1c1ccccc1 , give its reported Emax.
## Result > 200%

###

STUDY SYSTEM: F508delCFTR (Homo sapiens, UniProt P13569, DEL508-508)
Construct: expressed in transfected cells; host or cells: CFBE41o- human lung-derived epithelial cells (CFBE4lo-F508delCFTR-HRP), doxycycline-inducible
PROTOCOL DETAILS: Cell Surface Expression-Horse Radish Peroxidase (CSE-HRP) Assay
Type: cell-based
CONDITION INFO: CSE-HRP; with co-corrector (2 μM of 3-[(2R,4R)-4-({[1-(2,2-difluoro-1,3-benzodioxol-5-yl)cyclopropyl]carbonyl}amino)-7-methoxy-3,4-dihydro-2H-chromen-2-yl]benzoic acid); read-out: EC50 (with co-corrector)
OUTCOME MEASURE: EC50

# annotated cases, reported EC50 shown
molecule="COc1ccc(C(C)(C)C)cc1CN[C@H]1[C@H](C(C)(C)C)[C@@H](C(=O)O)N(C(=O)CC2(C)CCC(F)(F)C2)[C@H]1c1ccccc1 (stereo partly drawn)" study_system="F508delCFTR (Homo sapiens, UniProt P13569, DEL508-508)" meas_value="1 to 10 µM"
molecule=COc1cc(C(C)(C)C)ccc1CN[C@H]1[C@H](C(C)(C)C)[C@@H](C(=O)O)N(C(=O)C2CCCCC2)[C@H]1c1ccccc1 study_system="F508delCFTR (Homo sapiens, UniProt P13569, DEL508-508)" meas_value="1 to 10 µM"

// switching to the query molecule
## Task For the molecule COc1ncc(C2CC3CCC2C3)cc1CN[C@H]1[C@H](C(C)(C)OC)[C@@H](C(=O)O)N(C(=O)C2CCCCC2)[C@H]1c1ccccc1 (stereo partly drawn) , give its reported EC50.
## Result < 1 µM

###

STUDY SYSTEM: F508delCFTR (Homo sapiens, UniProt P13569, DEL508-508)
Construct: expressed in transfected cells; host or cells: CFBE41o- human lung-derived epithelial cells (CFBE4lo-F508delCFTR-HRP), doxycycline-inducible
PROTOCOL DETAILS: Cell Surface Expression-Horse Radish Peroxidase (CSE-HRP) Assay;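 as to Maximum % activity (with co-corrector): co-corrector and positive control are both the same reference corrector at 2 µM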
Type: cell-based
CONDITION INFO: with co-corrector (2 μM); maximum at any tested concentration, normalized to on-plate positive control
OUTCOME MEASURE: Maximum % activity (with co-corrector)

molecule=COc1nc(C(C)(C)C)ccc1CN[C@H]1[C@H](C(C)(C)C)[C@@H](C(=O)O)N(C(=O)[C@@H]2CCCCO2)[C@H]1c1ccccc1F outcome_measure="Maximum % activity (with co-corrector)" meas_value="+++ (≥350)"
molecule="COc1ccc(C(C)(C)C)cc1CN[C@@H]1[C@@H](C(C)(C)C)[C@H](C(=O)O)N(C(=O)C2CCCCC2)[C@@H]1c1ccccc1 (racemic)" outcome_measure="Maximum % activity (with co-corrector)" meas_value="+++ (≥350)"
molecule=COc1ncc(C2CCC2)cc1CN[C@H]1[C@H](C(C)(C)C)[C@@H](C(=O)O)N(C(=O)C2CCCCC2)[C@H]1c1cccnc1OC outcome_measure="Maximum % activity (with co-corrector)" meas_value="+++ (≥350)"

###

STUDY SYSTEM: F508delCFTR (Homo sapiens, UniProt P13569, DEL508-508)
Construct: expressed in transfected cells; host or cells: CFBE41o- human lung-derived epithelial cells (CFBE4lo-F508delCFTR-HRP), doxycycline-inducible
PROTOCOL DETAILS: Cell Surface Expression-Horse Radish Peroxidase (CSE-HRP) Assay;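 as to Maximum % activity (without co-corrector): percent of the 2 µM on-plate positive control corrector response above DMSO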
Format: cell-based
CONDITION INFO: test compound without co-corrector; maximum at any tested concentration, normalized to on-plate positive control; read-out: Maximum % activity (without co-corrector)
OUTCOME MEASURE: Emax

# annotated cases, reported Emax shown
compound="COc1ccc(C(C)(C)C)cc1CN[C@H]1[C@H](C(C)(C)C)[C@@H](C(=O)O)N(C(=O)C2(C)CCc3c(Cl)cccc32)[C@H]1c1ccccc1 (stereo partly drawn)" outcome_measure=Emax meas_value="100 to 200%"
compound="Cc1cc(C(F)(F)F)cc(N[C@@H]2[C@@H](C(C)(C)C)[C@H](C(=O)NS(=O)(=O)C(C)(C)C)N(C(=O)C3CCCCC3)[C@@H]2c2ccccc2)n1 (racemic)" outcome_measure=Emax meas_value="< 100%"
compound=CC#CCOC(=O)N1[C@H](C(=O)O)[C@@H](C(C)(C)C)[C@H](NCc2cc(C(C)(C)C)ccc2OC)[C@@H]1c1ccccc1 outcome_measure=Emax meas_value="100 to 200%"

## Task For the compound COc1ncc(C2CCC2)cc1CN[C@H]1[C@H](C(C)(C)C)[C@@H](C(=O)O)N(C(=O)C2CCCC(F)(F)C2)[C@H]1c1ccccc1 (stereo partly drawn) , give its reported Emax.
## Result > 200%

## Task For the compound COc1cc(C(F)(F)F)ccc1CN[C@@H]1[C@@H](C(C)(C)C)[C@H](C(=O)O)N(C(=O)C(C)c2ccccc2)[C@@H]1c1ccccc1 (single isomer, unassigned) , give its reported Emax.
## Result < 100%

## Task For the compound COc1ccc(C(C)(C)C)cc1CN[C@H]1[C@H](C(C)(C)C)[C@@H](C(=O)O)N(C(=O)C2CCCCO2)[C@H]1c1ccccc1 (stereo partly drawn) , give its reported Emax.
## Result > 200%

## Task For the compound CO[C@@H](C(=O)N1[C@H](C(=O)O)[C@@H](C(C)(C)C)[C@H](Nc2cc(C(F)(F)F)cc(C)n2)[C@@H]1c1ccccc1)c1ccccc1 , give its reported Emax.
## Result < 100%

## Task For the compound COc1cc2c(cc1CN[C@H]1[C@H](C(C)(C)C)[C@@H](C(=O)O)N(C(=O)OC(C)C)[C@H]1c1ccccc1)C(C)(C)CCC2(C)C , give its reported Emax.
## Result 100 to 200%

## Task For the compound CC(C)(C)[C@@H]1[C@@H](NCc2ccccc2C#N)[C@@H](c2ccccc2)N(C(=O)C2CCCCC2)[C@H]1C(=O)O (racemic) , give its reported Emax.
## Result < 100%

## Task For the compound COc1ncc(C(F)(F)F)cc1CN[C@@H]1[C@@H](C(C)(C)OC)[C@H](C(=O)O)N(C(=O)C2CCCCC2)[C@@H]1c1ccccc1 (racemic) , give its reported Emax.
## Result 100 to 200%

## Task For the compound COc1nc(C(C)(C)C)ccc1CN[C@H]1[C@H](C(C)(C)C)[C@@H](C(=O)O)N(C(=O)OC(C)C)[C@H]1c1ccccc1F , give its reported Emax.
## Result 100 to 200%
